src = patent US8486939B2

Tested on: NZOV9
Experiment: Cellular growth inhibition (3H-thymidine incorporation)
Assay type: cell-based
Conditions: Homo sapiens, five days incubation, 3H-thymidine over the last 6 hrs, read-out: Cell IC50* NZOV9
property-label: IC50

Check out these entries, answers already filled in.
> print(dat)
                              sample.smiles   data.value
1  CN(Cc1ccccc1)c1nc(N2CCOCC2)nc(-n2c(C(F)F)nc3ccccc32)n1  0.1 to 1 µM
2  CSc1nc2ccccc2n1-c1nc(Nc2cccnc2)nc(N2CCOCC2)n1  0.1 to 1 µM
3  COc1cccc2c1nc(C(F)F)n2-c1nc(Nc2cccnc2)nc(N2CCOCC2)n1     < 0.1 µM

Tested on NZOV9: CN(c1ccccc1)c1nc(N2CCOCC2)nc(-n2c(C(F)F)nc3ccccc32)n1 . Observed IC50: 0.1 to 1 µM

Tested on NZOV9: FC(F)c1nc2ccccc2n1-c1nc(-c2cccnc2)nc(N2CCOCC2)n1 . Observed IC50: 0.1 to 1 µM

Tested on NZOV9: FC(F)c1nc2ccccc2n1-c1nc(Oc2ccccc2)nc(N2CCOCC2)n1 . Observed IC50: 1 to 10 µM

Tested on NZOV9: COc1cccc2c1nc(C(F)F)n2-c1nc(N2CCOCC2)nc(N(C)c2cccnc2)n1 . Observed IC50: < 0.1 µM

Tested on NZOV9: COc1ccc(Nc2nc(N3CCOCC3)nc(-n3c(C(F)F)nc4c(OC)cccc43)n2)cn1 . Observed IC50: < 0.1 µM

###

Test system: NZOV9
Assay: Cellular growth inhibition (3H-thymidine incorporation)
Type: cell-based
Details: Homo sapiens, five days incubation, 3H-thymidine over the last 6 hrs, read-out: Cell IC50* NZOV9
pIC50: −log10 of the molar value.
Below, each entry is listed alongside its reported pIC50.

Tested on NZOV9: FC(F)c1nc2ccccc2n1-c1nc(NCc2ccccn2)nc(N2CCOCC2)n1 . Observed pIC50: 6.00 to 7.00

Tested on NZOV9: COc1cccc2c1nc(C(F)F)n2-c1nc(Nc2ccc(N)nc2)nc(N2CCOCC2)n1 . Observed pIC50: > 7.00

Tested on NZOV9: FC(F)c1nc2ccccc2n1-c1nc(Nc2cnccn2)nc(N2CCOCC2)n1 . Observed pIC50: 6.00 to 7.00

Tested on NZOV9: FC(F)c1nc2ccccc2n1-c1nc(NCc2cccnc2)nc(N2CCOCC2)n1 . Observed pIC50: 6.00 to 7.00

Tested on NZOV9: FC(F)c1nc2ccccc2n1-c1nc(Nc2ccccn2)nc(N2CCOCC2)n1 . Observed pIC50: 6.00 to 7.00

Tested on NZOV9: CS(=O)(=O)c1nc2ccccc2n1-c1nc(Nc2cccnc2)nc(N2CCOCC2)n1 . Observed pIC50: 6.00 to 7.00

Tested on NZOV9: FC(F)c1nc2ccccc2n1-c1nc(Nc2ncccn2)nc(N2CCOCC2)n1 . Observed pIC50: 6.00 to 7.00

Tested on NZOV9: COc1cccc2c1nc(C(F)F)n2-c1nc(Nc2cccnn2)nc(N2CCOCC2)n1 . Observed pIC50: > 7.00

###

Target: p110α/p85 (Homo sapiens)
Assay: Inhibition of isolated enzyme (lipid kinase assay, [γ33P]ATP, TLC)
Details: recombinant enzyme, 100 μM ATP, 1 hr room temperature, average of two experiments
pIC50: −log10 of the molar value.
Below, each entry is listed alongside its reported pIC50.

> print(dat)
                              sample.smiles  property.label  data.value
1  COc1ccncc1Nc1nc(N2CCOCC2)nc(-n2c(C(F)F)nc3ccccc32)n1           pIC50      > 7.00
2  FC(F)c1nc2ccccc2n1-c1nc(Nc2ccncn2)nc(N2CCOCC2)n1           pIC50      > 7.00
3  COc1cc(N)cc2c1nc(C(F)F)n2-c1nc(-c2cccnc2)cc(N2CCOCC2)n1           pIC50      > 7.00
4  COc1cccc2c1nc(C(F)F)n2-c1nc(Nc2cnc(N(C)CCN(C)C)nc2)nc(N2CCOCC2)n1           pIC50      > 7.00
5  FC(F)c1nc2ccccc2n1-c1nc(Nc2cccnn2)nc(N2CCOCC2)n1           pIC50      > 7.00

So for FC(F)c1nc2ccccc2n1-c1nc(NCc2ccncc2)nc(N2CCOCC2)n1 , the logged pIC50 turned out to be 6.00 to 7.00

So for FC(F)c1nc2ccccc2n1-c1nc(Nc2cnccn2)nc(N2CCOCC2)n1 , the logged pIC50 turned out to be > 7.00

So for FC(F)c1nc2ccccc2n1-c1nc(Sc2ccccc2)nc(N2CCOCC2)n1 , the logged pIC50 turned out to be < 5.00

So for COc1cccc2c1nc(C(F)F)n2-c1nc(Nc2ccc(Cl)nc2)nc(N2CCOCC2)n1 , the logged pIC50 turned out to be > 7.00

So for COc1cc(N)cc2c1nc(C(F)F)n2-c1nc(-c2ccn(C)n2)nc(N2CCOCC2)n1 , the logged pIC50 turned out to be > 7.00

So for CSc1nc2ccccc2n1-c1nc(Nc2cccnc2)nc(N2CCOCC2)n1 , the logged pIC50 turned out to be 5.00 to 6.00

So for COc1cccc2c1nc(C(F)F)n2-c1nc(Nc2cnc(N(C)CCCN(C)C)nc2)nc(N2CCOCC2)n1 , the logged pIC50 turned out to be > 7.00

So for FC(F)c1nc2ccccc2n1-c1nc(Nc2ccccc2)nc(N2CCOCC2)n1 , the logged pIC50 turned out to be 6.00 to 7.00

So for CN(c1cncnc1)c1nc(N2CCOCC2)nc(-n2c(C(F)F)nc3ccccc32)n1 , the logged pIC50 turned out to be > 7.00

So for FC(F)c1nc2ccccc2n1-c1nc(-c2cccnc2)cc(N2CCOCC2)n1 , the logged pIC50 turned out to be 6.00 to 7.00

So for FC(F)c1nc2ccccc2n1-c1nc(Oc2ccccc2)nc(N2CCOCC2)n1 , the logged pIC50 turned out to be < 5.00

###

Structures can show the parent of a compound that is named as a salt.
Below, each entry is listed alongside its reported melting point.

Check out these entries, answers already filled in.
> print(dat)
                                   compound     data.value
1  FC(F)c1nc2ccccc2n1-c1nc(Oc2ccccc2)nc(N2CCOCC2)n1 [Example 10]  228 to 231 °C
2  COc1cccc2c1nc(C(F)F)n2-c1nc(Nc2ccncn2)nc(N2CCOCC2)n1 [Example 36]  234 to 236 °C
3  COc1cc(N)cc2c1nc(C(F)F)n2-c1nc(-c2ccn(C)n2)nc(N2CCOCC2)n1 (as salt: methanesulfonate) [Example 65]       > 300 °C

So for COc1ccc(-c2cc(N3CCOCC3)nc(-n3c(C(F)F)nc4ccccc43)n2)cn1 [Example 53] , the logged melting point turned out to be 224 to 226 °C

So for FC(F)c1nc2ccccc2n1-c1nc(Nc2ccncc2)nc(N2CCOCC2)n1 [Example 17] , the logged melting point turned out to be 222 to 224 °C

So for FC(F)c1nc2ccccc2n1-c1nc(Nc2ccncn2)nc(N2CCOCC2)n1 [Example 20] , the logged melting point turned out to be 233 to 235 °C

So for COc1cccc2c1nc(C(F)F)n2-c1nc(N2CCOCC2)nc(N(C)c2cccnc2)n1 [Example 3] , the logged melting point turned out to be 200 to 201 °C

So for COc1cccc2c1nc(C(F)F)n2-c1nc(Nc2ccc(N)nc2)nc(N2CCOCC2)n1 [Example 37] , the logged melting point turned out to be 267 to 270 °C

So for COc1cccc2c1nc(C(F)F)n2-c1nc(-c2cccnc2)cc(N2CCOCC2)n1 [Example 52] , the logged melting point turned out to be 208 to 210 °C

So for FC(F)c1nc2ccccc2n1-c1nc(Nc2cncnc2)nc(N2CCOCC2)n1 (as salt: methanesulfonate) [Example 35] , the logged melting point turned out to be 163 to 166 °C

So for COc1cccc2c1nc(C(F)F)n2-c1nc(-c2cn[nH]c2)nc(N2CCOCC2)n1 [Example 50] , the logged melting point turned out to be 289 to 291 °C

###

Molecular target: p110α/p85 (Homo sapiens, UniProt P42336)
Sequence (P42336 whole entry): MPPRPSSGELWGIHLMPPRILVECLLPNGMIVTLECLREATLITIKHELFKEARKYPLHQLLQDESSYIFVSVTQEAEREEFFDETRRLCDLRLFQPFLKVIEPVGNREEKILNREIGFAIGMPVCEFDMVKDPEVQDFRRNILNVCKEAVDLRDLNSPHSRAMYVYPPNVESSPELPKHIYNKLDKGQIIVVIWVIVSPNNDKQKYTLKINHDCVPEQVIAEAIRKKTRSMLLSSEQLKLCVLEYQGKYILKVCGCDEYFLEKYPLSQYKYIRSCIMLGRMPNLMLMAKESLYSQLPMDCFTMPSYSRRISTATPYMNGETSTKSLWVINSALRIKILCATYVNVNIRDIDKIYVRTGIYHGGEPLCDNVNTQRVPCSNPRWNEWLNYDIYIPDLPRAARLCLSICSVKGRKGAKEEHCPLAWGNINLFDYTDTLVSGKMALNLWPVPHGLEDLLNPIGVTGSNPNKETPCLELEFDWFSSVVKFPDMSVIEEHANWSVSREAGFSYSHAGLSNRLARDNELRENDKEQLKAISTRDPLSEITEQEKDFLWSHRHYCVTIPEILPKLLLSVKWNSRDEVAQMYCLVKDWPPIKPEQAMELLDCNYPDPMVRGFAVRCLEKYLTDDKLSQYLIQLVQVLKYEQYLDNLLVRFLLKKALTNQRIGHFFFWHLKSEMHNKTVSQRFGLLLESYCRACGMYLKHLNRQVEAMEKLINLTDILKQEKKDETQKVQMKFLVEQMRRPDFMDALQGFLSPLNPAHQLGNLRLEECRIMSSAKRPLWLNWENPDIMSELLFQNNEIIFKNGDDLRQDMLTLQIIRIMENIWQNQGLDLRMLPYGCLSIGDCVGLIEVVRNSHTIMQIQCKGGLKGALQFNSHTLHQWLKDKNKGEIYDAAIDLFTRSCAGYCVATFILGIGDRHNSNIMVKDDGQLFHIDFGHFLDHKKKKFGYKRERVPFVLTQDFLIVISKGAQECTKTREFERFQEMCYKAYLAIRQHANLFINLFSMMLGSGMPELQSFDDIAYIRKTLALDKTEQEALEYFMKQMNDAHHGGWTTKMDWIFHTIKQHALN
Sequence (P27986 whole entry partner): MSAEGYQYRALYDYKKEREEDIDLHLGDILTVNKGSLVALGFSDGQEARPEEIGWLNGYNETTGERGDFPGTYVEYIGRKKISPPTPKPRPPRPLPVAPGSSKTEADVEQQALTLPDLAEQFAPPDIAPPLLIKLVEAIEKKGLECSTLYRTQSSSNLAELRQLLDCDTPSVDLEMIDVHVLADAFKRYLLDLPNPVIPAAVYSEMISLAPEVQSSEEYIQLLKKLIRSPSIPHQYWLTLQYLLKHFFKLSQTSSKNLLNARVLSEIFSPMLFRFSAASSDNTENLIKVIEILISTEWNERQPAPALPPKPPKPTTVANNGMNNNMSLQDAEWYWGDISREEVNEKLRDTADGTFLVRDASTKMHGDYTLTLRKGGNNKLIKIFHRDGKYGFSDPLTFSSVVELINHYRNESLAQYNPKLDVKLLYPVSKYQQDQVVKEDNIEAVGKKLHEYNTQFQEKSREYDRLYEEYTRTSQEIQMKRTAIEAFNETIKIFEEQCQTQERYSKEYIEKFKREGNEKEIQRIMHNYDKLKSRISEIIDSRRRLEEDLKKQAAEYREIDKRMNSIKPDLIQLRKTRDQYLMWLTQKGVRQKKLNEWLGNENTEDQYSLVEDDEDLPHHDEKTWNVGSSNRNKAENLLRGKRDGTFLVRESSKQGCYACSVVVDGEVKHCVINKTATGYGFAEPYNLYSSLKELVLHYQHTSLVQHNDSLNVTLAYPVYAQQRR
Assay: Inhibition of isolated enzyme (lipid kinase assay, [γ33P]ATP, TLC)
Details: recombinant enzyme, 100 μM ATP, 1 hr room temperature, average of two experiments
Below, each entry is listed alongside its reported IC50.

So for FC(F)c1nc2ccccc2n1-c1nc(NCc2ccccn2)nc(N2CCOCC2)n1 , the logged IC50 turned out to be < 100 nM

###

Below, each entry is listed alongside its reported pIC50.
Target: p110δ/p85 (Homo sapiens)
Sequence (O00329 whole entry, species assumed): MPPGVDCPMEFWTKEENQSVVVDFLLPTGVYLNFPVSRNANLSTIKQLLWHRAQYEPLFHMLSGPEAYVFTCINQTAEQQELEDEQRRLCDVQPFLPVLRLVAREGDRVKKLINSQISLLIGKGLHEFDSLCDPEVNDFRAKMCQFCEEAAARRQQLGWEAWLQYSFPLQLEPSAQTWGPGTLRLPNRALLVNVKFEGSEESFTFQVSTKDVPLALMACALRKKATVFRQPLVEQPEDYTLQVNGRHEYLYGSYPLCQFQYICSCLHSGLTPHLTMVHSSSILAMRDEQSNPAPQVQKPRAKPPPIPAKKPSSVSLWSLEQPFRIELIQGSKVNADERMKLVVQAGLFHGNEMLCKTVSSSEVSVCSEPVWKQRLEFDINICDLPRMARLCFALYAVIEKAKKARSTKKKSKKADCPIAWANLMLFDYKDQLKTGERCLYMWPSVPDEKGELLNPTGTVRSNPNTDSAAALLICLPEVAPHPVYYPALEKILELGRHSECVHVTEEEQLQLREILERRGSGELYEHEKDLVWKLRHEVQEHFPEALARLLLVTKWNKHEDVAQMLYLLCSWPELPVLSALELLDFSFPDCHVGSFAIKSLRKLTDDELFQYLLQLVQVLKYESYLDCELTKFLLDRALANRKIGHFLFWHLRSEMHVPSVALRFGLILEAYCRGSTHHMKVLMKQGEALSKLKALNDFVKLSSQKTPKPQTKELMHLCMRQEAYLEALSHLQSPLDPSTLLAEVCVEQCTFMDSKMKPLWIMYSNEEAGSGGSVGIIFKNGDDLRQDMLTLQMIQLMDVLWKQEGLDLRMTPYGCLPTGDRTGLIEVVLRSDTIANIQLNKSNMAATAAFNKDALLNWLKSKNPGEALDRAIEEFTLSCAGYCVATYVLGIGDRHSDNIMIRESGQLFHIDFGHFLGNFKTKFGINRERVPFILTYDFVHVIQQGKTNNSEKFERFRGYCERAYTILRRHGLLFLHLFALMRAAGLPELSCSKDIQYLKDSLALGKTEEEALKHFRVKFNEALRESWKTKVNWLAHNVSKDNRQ
Sequence (P27986 whole entry partner, species assumed): as the sequence (P27986 whole entry partner) above
Assay: Inhibition of isolated enzyme (lipid kinase assay, [γ33P]ATP, TLC)
Settings: recombinant enzyme, 100 μM ATP, 1 hr room temperature, average of two experiments
pIC50: −log10 of the molar value.

> print(dat)
                                   compound  property.label  data.value
1  FC(F)c1nc2ccccc2n1-c1nc(-c2cccnc2)nc(N2CCOCC2)n1 [Example 47]           pIC50      > 7.00
2  COc1cccc2c1nc(C(F)F)n2-c1nc(Nc2ccc(F)nc2)nc(N2CCOCC2)n1 [Example 29]           pIC50      > 7.00

Tested on p110δ/p85 (Homo sapiens): COc1cccc2c1nc(C(F)F)n2-c1nc(Nc2ccncn2)nc(N2CCOCC2)n1 [Example 36] . Observed pIC50: > 7.00

Tested on p110δ/p85 (Homo sapiens): FC(F)c1nc2ccccc2n1-c1nc(Nc2ccccn2)nc(N2CCOCC2)n1 [Example 16] . Observed pIC50: > 7.00

Tested on p110δ/p85 (Homo sapiens): COc1ncc(Nc2nc(N3CCOCC3)nc(-n3c(C(F)F)nc4c(OC)cccc43)n2)cn1 [Example 40] . Observed pIC50: > 7.00

Tested on p110δ/p85 (Homo sapiens): COc1cc(Nc2nc(N3CCOCC3)nc(-n3c(C(F)F)nc4c(OC)cccc43)n2)ncn1 [Example 32] . Observed pIC50: > 7.00

Tested on p110δ/p85 (Homo sapiens): CN(c1ccccc1)c1nc(N2CCOCC2)nc(-n2c(C(F)F)nc3ccccc32)n1 [Example 7] . Observed pIC50: 6.00 to 7.00

Tested on p110δ/p85 (Homo sapiens): COc1cc(N)cc2c1nc(C(F)F)n2-c1nc(N2CCOCC2)nc(-n2cccn2)n1 [Example 64] . Observed pIC50: > 7.00
